Hey, just so you know, these numbers are from paper PMC10058671.

# experimentDescription: in vivo
# Design: species or system golden hamsters
# measurementContext: male, golden, hamster, in vivo, po, 180 mg/kg
valueType: AUC at 3 day (ng·h/mL)
Give bare numbers, in ng·h/mL.

INPUT: Tell me the measured AUC at 3 day of COc1ccc2nc3cc(Cl)ccc3c(Nc3cc(CN4CCCC4)c(O)c(CN4CCCC4)c3)c2n1 [Pyronaridine, Pyronaridine tetraphosphate] , please.
OUTPUT: 57100

====

# experimentDescription: in vivo
# Set-up: species or system golden hamsters
# measurementContext: male, golden, hamster, in vivo, lung-to-blood AUC ratio (=AUClung/AUCblood)
valueType: Kp at 1 day
Numbers only.

INPUT: Tell me the measured Kp at 1 day of COc1ccc2nc3cc(Cl)ccc3c(Nc3cc(CN4CCCC4)c(O)c(CN4CCCC4)c3)c2n1 [Pyronaridine, Pyronaridine tetraphosphate] , please.
OUTPUT: 25.5

====

# experimentDescription: in vivo
# Design: species or system golden hamsters
# measurementContext: male, golden, hamster, in vivo, trachea-to-blood AUC ratio (=AUCtrachea/AUCblood)
valueType: Kp at 1 day

INPUT: Tell me the measured Kp at 1 day of COc1ccc2nc3cc(Cl)ccc3c(Nc3cc(CN4CCCC4)c(O)c(CN4CCCC4)c3)c2n1 [Pyronaridine, Pyronaridine tetraphosphate] , please.
OUTPUT: 7.17

====

# experimentDescription: in vivo
# Parameters: species or system golden hamsters
# measurementContext: male, golden, hamster, in vivo, po, 360 mg/kg
# Experimental: One hundred eight male golden hamsters were obtained from Janvier Lab. (Le Genest-Saint-Isle, France). All hamsters were maintained on a 12-h dark–light cycle at a temperature of 23 ± 3 °C and relative humidity of 55 ± 15%. […] The hamsters (102.01 ± 5.72 g) were divided into two groups: a low-dose group (n = 60) and a high-dose group (n = 48). […] For pyronaridine quantification, whole blood samples were stored at −70 °C until sample analysis. […]
valueType: Cmax (ng/mL)
Numbers only, in ng/mL.

INPUT: Tell me the measured Cmax of COc1ccc2nc3cc(Cl)ccc3c(Nc3cc(CN4CCCC4)c(O)c(CN4CCCC4)c3)c2n1 [Pyronaridine, Pyronaridine tetraphosphate] , please.
OUTPUT: 4540

====

# experimentDescription: in vivo
# Design: species or system golden hamsters
# measurementContext: male, golden, hamster, in vivo, po, 180 mg/kg
valueType: AUC at 1 day (ng·h/mL)
Answers are plain numbers, in ng·h/mL.

INPUT: Tell me the measured AUC at 1 day of COc1ccc2nc3cc(Cl)ccc3c(Nc3cc(CN4CCCC4)c(O)c(CN4CCCC4)c3)c2n1 [Pyronaridine, Pyronaridine tetraphosphate] , please.
OUTPUT: 24100

====

# experimentDescription: in vivo
# Set-up: species or system golden hamsters
# measurementContext: male, golden, hamster, in vivo, trachea-to-blood AUC ratio
valueType: Kp at 3 day
Give bare numbers.

INPUT: Tell me the measured Kp at 3 day of COc1ccc2nc3cc(Cl)ccc3c(Nc3cc(CN4CCCC4)c(O)c(CN4CCCC4)c3)c2n1 [Pyronaridine, Pyronaridine tetraphosphate] , please.
OUTPUT: 16.6

====

# experimentDescription: in vivo
# Set-up: species or system golden hamsters
# measurementContext: male, golden, hamster, in vivo, po, 360 mg/kg
valueType: Tmax

INPUT: Tell me the measured Tmax of COc1ccc2nc3cc(Cl)ccc3c(Nc3cc(CN4CCCC4)c(O)c(CN4CCCC4)c3)c2n1 [Pyronaridine, Pyronaridine tetraphosphate] , please.
OUTPUT: 2 to 4 h
